experiment: Competitive inhibition of bacterial C-terminal His6-tagged ErmC' expressed in Escherichia coli BL21(DE3) in presence of [methyl-3H]SAM
Listed compounds paired with reported Ki
Kindly report the value followed by its unit.

- O=C(c1csc(Nc2ncccn2)n1)N1CCN(c2ccc(C(F)(F)F)cn2)CC1: 111 µM

Query compound follows.
Data request, read-out Ki, for CC(=O)Nc1nc(C)c(-c2csc(Nc3cccc(O)c3)n2)s1
354 µM

====

assay: Inhibition of bacterial C-terminal His6-tagged ErmC' (unknown origin) expressed in Escherichia coli BL21(DE3) assessed as decrease in rRNA methylation using [methyl-3H]AdoMet measured after 1 hr
Listed compounds paired with reported IC50
Enter your answer as a number in µM; do not include the unit.

For orientation, consider the following solved cases.
• Cn1cnnc1-c1cccc(NC(=O)Cc2cccc(F)c2)c1 = 500
• O=C(NCCOc1ccc2c(c1)OCO2)c1ccc2ccccc2n1 = 500
• CC(=O)Nc1nc(C)c(-c2csc(Nc3cccc(O)c3)n2)s1 = 299
• O=C(c1c[nH]c(=O)[nH]1)N1CCN(c2ccc(C(F)(F)F)cn2)CC1 = 100
• CC(=O)Nc1ccc(S(=O)(=O)NCCc2ccncc2)cc1 = 500

Query compound follows.
Data request, read-out IC50, for O=C(NCCSc1ccccc1)c1ccc(-n2cncn2)cc1
250
